# assay overview: Cytotoxicity by lactic dehydrogenase (LDH) assay
# Type: cell-based, human
# condition summary: human; SKOV3 cells, pH 7.4, 3 hours with peptide then 24 hours; read-out: cell viability
readout name: viability at 3 h

GET /values?readout=viability at 3 h&item= `Ac-HFFHGHFFHGHFFHGKK-NH2`
~100%

---

# assay overview: Solubility of peptides at pH 7.4 and 6.5 (Example 13)
# Format: physicochemical
# condition summary: pH 6.5

# substance, solubility of peptide
data = [
    ("Ac-GFFFHGFFFH-NH2", "insoluble"),
    ("Ac-GHFFHGFFFH-NH2", "insoluble"),
    ("Ac-GHFFHGHFFH-NH2", "soluble"),
    ("Ac-KGGHFFHGHFFHGK-NH2", "soluble"),
]

---

# assay overview: Solubility of peptides at pH 7.4 and 6.5 (Example 13)
# Format: physicochemical
# condition summary: pH 7.4

# substance, solubility of peptide
data = [
    ("Ac-GFFFHGFFFH-NH2", "insoluble"),
    ("Ac-GHFFHGFFFH-NH2", "insoluble"),
    ("Ac-KGGHFFHGHFFHGK-NH2", "soluble"),
    ("Ac-GHFFHGHFFH-NH2", "soluble"),
]
